Just for reference, patent US4131681A is where these values come from.

Assay: Acute toxicity in mouse
Details: in vivo, ip, male, 7 days
recorded_metric: LD50 at 168 h

O=C(Cn1c(=O)sc2ccc(Cl)cc21)N1CCC(O)CC1: > 8000 mg/kg

---

Assay: Acute toxicity in rat
Settings: in vivo, po, male, 7 days
recorded_metric: LD50 at 168 h

O=C(O)c1cc(=O)c2c(OCC(O)COc3cccc4oc(C(=O)O)cc(=O)c34)cccc2o1 [Compound C, disodium chromoglycate]: > 11000 mg/kg
O=C(Cn1c(=O)sc2ccc(Cl)cc21)N1CCC(O)CC1 [Compound A]: > 8000 mg/kg

---

Experiment: Acute toxicity in mouse
Conditions: in vivo, po, male, 7 days
Structures can show the parent of a compound that is named as a salt.
Reported LD50 at 168 h is given for each of the following compounds.
recorded_metric: LD50 at 168 h

O=C(Cn1c(=O)sc2ccc(Cl)cc21)N1CCC(O)CC1: > 8000 mg/kg
O=C(Cn1c(=O)sc2ccc(Cl)cc21)N1CCN(CCO)CC1 [Compound D, hydrochloride]: 564 mg/kg
O=C(O)c1cc(=O)c2c(OCC(O)COc3cccc4oc(C(=O)O)cc(=O)c34)cccc2o1 [Compound C, disodium chromoglycate]: > 11000 mg/kg

---

Assay: Acute toxicity in mouse
Conditions: in vivo, sc, male, 7 days
recorded_metric: LD50 at 168 h

O=C(Cn1c(=O)sc2ccc(Cl)cc21)N1CCC(O)CC1: > 8000 mg/kg

---

Below, each of the molecules is paired with its reported LD50 at 168 h value.
Experiment: Acute toxicity in mouse
Settings: in vivo, po, female, 7 days
Counter-ions that a name gives are not always drawn.
recorded_metric: LD50 at 168 h

O=C(Cn1c(=O)sc2ccc(Cl)cc21)N1CCC(O)CC1 [Compound A]: > 8000 mg/kg
O=C(O)c1cc(=O)c2c(OCC(O)COc3cccc4oc(C(=O)O)cc(=O)c34)cccc2o1 [Compound C, disodium chromoglycate]: > 11000 mg/kg
O=C(Cn1c(=O)sc2ccc(Cl)cc21)N1CCN(CCO)CC1 [Compound D, hydrochloride]: 622 mg/kg

---

Assay: Acute toxicity in rat
Conditions: in vivo, sc, male, 7 days
recorded_metric: LD50 at 168 h

O=C(Cn1c(=O)sc2ccc(Cl)cc21)N1CCC(O)CC1: > 8000 mg/kg

---

Assay: Acute toxicity in mouse
Details: in vivo, ip, female, 7 days
recorded_metric: LD50 at 168 h

O=C(Cn1c(=O)sc2ccc(Cl)cc21)N1CCC(O)CC1 [Compound A]: > 8000 mg/kg

---

Assay: Acute toxicity in rat
Settings: in vivo, ip, male, 7 days
recorded_metric: LD50 at 168 h (mg/kg)

O=C(Cn1c(=O)sc2ccc(Cl)cc21)N1CCC(O)CC1 [Compound A]: 7110
